Listed below: switch fluorescence ratio values for each entry.
- Test system: ATP;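 also: ATP exposure 15 min at 22 °C before imaging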
- assay_explanation: switch fluorescence ratio, 500 uM ATP over buffer (Cy3 cluster intensity, sum of 5 cycles each) (fold (ratio)); higher = stronger signal-on switching upon ATP binding; sequences stand for … in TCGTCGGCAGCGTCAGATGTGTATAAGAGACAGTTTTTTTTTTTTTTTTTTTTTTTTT…TC
- measurement_setup: aptamer strand: ATP DNA aptamer (quencher-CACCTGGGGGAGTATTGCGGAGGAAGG + anchor), 100 nM annealed; ATP concentration: 500 uM
Returns: the value as a bare number; no unit string appended.

Sample answers from the record:
TAGCGGAGGC ... 1.03
GCTGTATGTT ... 0.974
ACGATGGTTG ... 0.973
CGGGAAAGTT ... 1.02
ATCCGAAGAT ... 1.04
ATACAGGGGG ... 1.02
GTTATAGCGT ... 0.963
AAGTCAATTC ... 1.36
GTTTGCATTT ... 0.981
TGTCGTTCTT ... 0.973

Query :: Need switch fluorescence ratio of TGCGATGAGG , thanks.
Result :: 1.01

Query :: Any idea what switch fluorescence ratio was measured for CTGGGAGGCA ?
Result :: 0.987

Query :: Fill in the blank: the reported switch fluorescence ratio of TTAAGCTAAT is ____.
Result :: 1.42

Query :: Request the reported switch fluorescence ratio associated with TAGTTAATCA
Result :: 0.991

Query :: Entry AGCAAAGAGC has what switch fluorescence ratio?
Result :: 0.99

Query :: What does the data say about its switch fluorescence ratio? Entry: AGAGGGTACG
Result :: 1.06

Query :: So what does the record say about switch fluorescence ratio for ATTTATTGAA ?
Result :: 0.996

Query :: Item under review: GTCGCAGGAG . Reported switch fluorescence ratio?
Result :: 1.05

Query :: What value of switch fluorescence ratio has been recorded for this entry: TGCTGCGACG
Result :: 1

----------
- Test system: ATP;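 also: ATP exposure 15 min at 22 °C before imaging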
- assay_explanation: switch fluorescence ratio, 500 uM ATP over buffer (Cy3 cluster intensity, sum of 5 cycles each) (fold (ratio)); higher = stronger signal-on switching upon ATP binding; sequences stand for … in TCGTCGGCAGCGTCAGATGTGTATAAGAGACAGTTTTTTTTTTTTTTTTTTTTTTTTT…TC
- measurement_setup: aptamer strand: ATP DNA aptamer (quencher-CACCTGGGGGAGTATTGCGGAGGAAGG + anchor), 100 nM annealed; ATP concentration: 500 uM
Each entry gets not fulfilled if its switch fluorescence ratio stays under 1, and fulfilled if its switch fluorescence ratio is 1 or above.

Use these answered entries as a reference point.
TTTGTGTCTT ... not fulfilled
TAGTTACGGT ... fulfilled

Query :: Could you verify whether the entry GCATTAGGTT shows switch fluorescence ratio of no less than 1?
Result :: fulfilled

Query :: Check this sequence for switch fluorescence ratio at or above 1: ACATACGAGT
Result :: fulfilled

Query :: switch fluorescence ratio >= 1 for TATTTGCGCA ?
Result :: fulfilled

Query :: # check: switch fluorescence ratio of CTTAGATGGG is greater than or equal to 1
Result :: not fulfilled

Query :: Is the recorded value of switch fluorescence ratio equal to or greater than 1 for this sequence? ACGGAGAAAC
Result :: fulfilled

Query :: hey, is switch fluorescence ratio for this one >= 1? TAATAAGTA
Result :: not fulfilled

Query :: Item ACCATACTGC with switch fluorescence ratio of 1 or above?
Result :: fulfilled

Query :: Please indicate if the recorded switch fluorescence ratio for TTGAATGAGG meets or exceeds 1.
Result :: not fulfilled

Query :: Threshold query (switch fluorescence ratio >= 1) on AATCAGGGTG
Result :: fulfilled

Query :: Given TTGGGCGGAA , state whether its switch fluorescence ratio is at least 1.
Result :: fulfilled

----------
- Tested on: ATP;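 also: ATP exposure 15 min at 22 °C before imaging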
- assay_explanation: switch fluorescence ratio, 500 uM ATP over buffer (Cy3 cluster intensity, sum of 5 cycles each) (fold (ratio)); higher = stronger signal-on switching upon ATP binding; sequences stand for … in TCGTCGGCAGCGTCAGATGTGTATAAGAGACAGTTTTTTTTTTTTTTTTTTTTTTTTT…TC
- measurement_setup: aptamer strand: ATP DNA aptamer (quencher-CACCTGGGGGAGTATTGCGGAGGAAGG + anchor), 100 nM annealed; ATP concentration: 500 uM
Parameter: switch fluorescence ratio. Scope: all listed entries.
// return just the number, without any unit appended

These recorded examples may help you get a feel for the data.
TTCGTGATAG ... 1.31
CACTATGGGA ... 1.02
GATCTATGTC ... 0.989
ATGGCGATCA ... 0.999
TTATTTTTCG ... 1.02
GGGCTATAGC ... 0.997

Next, consider the following sequence.
Query :: Which switch fluorescence ratio value belongs to GACCTGGGGC ?
Result :: 0.973

----------
- System: ATP;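 also: ATP exposure 15 min at 22 °C before imaging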
- assay_explanation: switch fluorescence ratio, 500 uM ATP over buffer (Cy3 cluster intensity, sum of 5 cycles each) (fold (ratio)); higher = stronger signal-on switching upon ATP binding; sequences stand for … in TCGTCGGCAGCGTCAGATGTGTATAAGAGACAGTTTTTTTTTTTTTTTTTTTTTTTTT…TC
- measurement_setup: aptamer strand: ATP DNA aptamer (quencher-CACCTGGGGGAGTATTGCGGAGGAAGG + anchor), 100 nM annealed; ATP concentration: 500 uM
readout_type: switch fluorescence ratio
The response must contain the number and no unit.

TGGCGTTAGG ... 0.977

Query :: Need switch fluorescence ratio of ACTAGAGCGA , thanks.
Result :: 1.11

Query :: What does the data say about its switch fluorescence ratio? Entry: GTTGATAAGT
Result :: 1.01

Query :: Query (sequence): TTCAGCTACA ; field requested: switch fluorescence ratio
Result :: 1.02

Query :: Form field: reported switch fluorescence ratio of TTATAGTTGA
Result :: 0.994

----------
- System: ATP;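 also: ATP exposure 15 min at 22 °C before imaging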
- assay_explanation: switch fluorescence ratio, 500 uM ATP over buffer (Cy3 cluster intensity, sum of 5 cycles each) (fold (ratio)); higher = stronger signal-on switching upon ATP binding; sequences stand for … in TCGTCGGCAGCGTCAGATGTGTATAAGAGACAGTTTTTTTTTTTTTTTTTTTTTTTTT…TC
- measurement_setup: aptamer strand: ATP DNA aptamer (quencher-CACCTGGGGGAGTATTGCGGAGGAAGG + anchor), 100 nM annealed; ATP concentration: 500 uM
readout_type: switch fluorescence ratio
Please respond with just the number, no unit label.

Example entries and their recorded answers appear below.
TTTTCAATGA ... 0.994
TAAGGGAGGG ... 1.05
TTGGAGCATG ... 1.28
ATCAGGAAAA ... 1.02
TTGACGGTGT ... 1.03

Query :: Entry under review: GACTGTGGCA . Reported switch fluorescence ratio?
Result :: 1.01

Query :: # switch fluorescence ratio lookup, item AACTTGGGTG
Result :: 1.02

Query :: # query: switch fluorescence ratio of entry TGTGACGGGG
Result :: 1.02

Query :: # lookup: switch fluorescence ratio of AACTTGGCGC
Result :: 1.01

Query :: Look up switch fluorescence ratio for this sequence: TATTGTTCTG
Result :: 0.982

----------
- Tested on: ATP;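 also: ATP exposure 15 min at 22 °C before imaging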
- assay_explanation: switch fluorescence ratio, 500 uM ATP over buffer (Cy3 cluster intensity, sum of 5 cycles each) (fold (ratio)); higher = stronger signal-on switching upon ATP binding; sequences stand for … in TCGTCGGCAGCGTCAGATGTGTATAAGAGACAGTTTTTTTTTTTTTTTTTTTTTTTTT…TC
- measurement_setup: aptamer strand: ATP DNA aptamer (quencher-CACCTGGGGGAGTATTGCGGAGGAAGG + anchor), 100 nM annealed; ATP concentration: 500 uM
Parameter: switch fluorescence ratio. Scope: all listed entries.

The following sequences have reported results that may help.
TAAAAATTTA ... 1.01
TTAAAGCAGT ... 1.56
GTTGCTACCT ... 1.05
GATCCCCCCC ... 1.06
GACCAGGGAT ... 1.09

Query :: Dear colleague, I am looking for the recorded switch fluorescence ratio of the following sequence: GTTGGGGGAG
Result :: 0.978

Query :: Can you look up the measured switch fluorescence ratio of CGTGGGAGAG for me?
Result :: 0.983

Query :: Any idea what switch fluorescence ratio was measured for GACAGATCCC ?
Result :: 0.982

Query :: Form field: reported switch fluorescence ratio of TACGGGCGGA
Result :: 1.02

Query :: Consider the sequence AAGTTATGAC and give its measured switch fluorescence ratio.
Result :: 1.03

Query :: I have this sequence here, GATTAATGGC , and I need its recorded switch fluorescence ratio.
Result :: 1.04

----------
- System: ATP;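 also: ATP exposure 15 min at 22 °C before imaging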
- assay_explanation: switch fluorescence ratio, 500 uM ATP over buffer (Cy3 cluster intensity, sum of 5 cycles each) (fold (ratio)); higher = stronger signal-on switching upon ATP binding; sequences stand for … in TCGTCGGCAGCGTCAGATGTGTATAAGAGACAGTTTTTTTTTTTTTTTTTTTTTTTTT…TC
- measurement_setup: aptamer strand: ATP DNA aptamer (quencher-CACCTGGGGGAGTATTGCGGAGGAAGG + anchor), 100 nM annealed; ATP concentration: 500 uM
Attribute: switch fluorescence ratio
# output: bare number, no unit

TTTCTTGGGC ... 1.01
TATTACACAT ... 1.01
GAGGTGCTGA ... 1
GGGAGTATTT ... 1
AGGCCATTGG ... 1.04
GCGTTTATGG ... 1
GATGAACGTT ... 0.984
TATGTCCAGT ... 1

Query :: For the sequence GGGGGGGCGC , what switch fluorescence ratio is on record?
Result :: 1.02

Query :: Bench note: what switch fluorescence ratio did AAGGGTAAAT show?
Result :: 0.996
